target desc: ATP-dependent Clp protease proteolytic subunit, mitochondrial (Homo sapiens, UniProt Q16740)
Sequence (Q16740 whole entry): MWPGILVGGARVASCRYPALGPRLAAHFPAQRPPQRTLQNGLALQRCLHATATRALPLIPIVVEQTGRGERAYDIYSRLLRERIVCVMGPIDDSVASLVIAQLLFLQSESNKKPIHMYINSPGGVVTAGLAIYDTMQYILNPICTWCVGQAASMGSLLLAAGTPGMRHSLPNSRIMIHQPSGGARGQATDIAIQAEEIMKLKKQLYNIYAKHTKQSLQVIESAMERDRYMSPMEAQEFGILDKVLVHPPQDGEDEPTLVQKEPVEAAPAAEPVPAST
procedure summary: Binding affinity to human Casein lysing protease P (HsClpP) assessed as change in melting temperature measured after 2 hrs differential scanning fluorimetry (DSF) assay
experimental endpoint: EC50 (nM)
Give the number; nM is assumed, so skip it.

I have this molecule here, N#Cc1cccc(CN2CCc3[nH]c(NCc4ccc(F)cc4)nc(=O)c3C2)c1 , and I need its recorded EC50. 1370

* * *

procedure summary: Cmax in Sprague-Dawley rat at 15 mg/kg, po measured upto 12 hrs by LC-MS analysis
Type: ADME, organism-based
assay conditions: in vivo
compounds and their reported Cmax
Give the number; ng/mL is assumed, so skip it.

Cc1ccccc1CN1C(=O)C2=C(CCN(Cc3ccccc3)C2)N2CCN=C12.Cl = 448

// switching to the query compound
I have this compound here, Cl.N#Cc1cccc(CN2CCc3[nH]c(NCc4ccc(F)cc4)nc(=O)c3C2)c1 , and I need its recorded Cmax. 332

* * *

Tested on: THP-1
procedure summary: Anti-leukemia activity against human THP-1 cells assessed as decrease in cell proliferation incubated for 72 hrs by CCK-8 assay
Assay type: functional, cell-based
assay conditions: THP-1, 72 h
experimental endpoint: IC50 (nM)
Give the number; nM is assumed, so skip it.

I have this molecule here, N#Cc1cccc(CN2CCc3[nH]c(NCc4ccc(F)cc4)nc(=O)c3C2)c1 , and I need its recorded IC50. 79.7

* * *

compounds and their reported pIC50
System: MV4-11
procedure summary: Anti-leukemia activity against human MV4-11 cells assessed as decrease in cell proliferation incubated for 72 hrs by CCK-8 assay
Assay type: functional, cell-based
assay conditions: MV4-11, 72 h
Quick note: pIC50 means taking -log10 of the concentration in moles per liter.

N#Cc1cccc(CN2CCc3[nH]c(NCc4ccc(Cl)c(Cl)c4)nc(=O)c3C2)c1 = 7.22

I'm curious: which pIC50 was measured for COc1ccc(CNc2nc(=O)c3c([nH]2)CCN(Cc2ccccc2)C3)cc1 tested on MV4-11? 6.08

Here is the next compound: Cc1ccccc1CN1CCn2c1nc(=O)c1c2CCN(Cc2ccccc2)C1 6.46

Here is the next compound: O=c1nc(NCc2ccccc2)[nH]c2c1CN(Cc1ccc(F)c(F)c1)CC2 5.92

* * *

compounds and their reported pEC50
target desc: ATP-dependent Clp protease proteolytic subunit, mitochondrial (Homo sapiens, UniProt Q16740)
procedure summary: Agonist activity at human Casein lysing protease P (HsClpP) assessed as increase in peptidase activity using fluorescent peptide AC-WLA-AMC as substrate measured after 2 hrs by […]
Quick note: pEC50 means taking -log10 of the concentration in moles per liter.

These solved cases illustrate the format of a correct answer.
O=c1nc(NCc2ccccc2)[nH]c2c1CN(Cc1ccc(Cl)cc1)CC2 = 5.92
O=c1nc(NCc2ccccc2)[nH]c2c1CN(Cc1ccc(Cl)c(Cl)c1)CC2 = 6.00
O=c1nc(NCc2ccc3ccccc3c2)[nH]c2c1CN(Cc1ccccc1)CC2 = 5.65
O=c1nc(NCc2ccccc2F)[nH]c2c1CN(Cc1ccccc1)CC2 = 5.87

// switching to the query compound
I have this compound here, O=c1nc(NCc2ccc(F)c(F)c2)[nH]c2c1CN(Cc1cc(F)cc(F)c1)CC2 , and I need its recorded pEC50. 6.29

* * *

procedure summary: Bioavailability in Sprague-Dawley rat at 5 mg/kg, iv measured upto 12 hrs by LC-MS analysis
Assay type: ADME, organism-based
assay conditions: in vivo
experimental endpoint: bioavailability

Cc1ccccc1CN1C(=O)C2=C(CCN(Cc3ccccc3)C2)N2CCN=C12.Cl = 14.8%

// switching to the query compound
I have this compound here, Cl.N#Cc1cccc(CN2CCc3[nH]c(NCc4ccc(F)cc4)nc(=O)c3C2)c1 , and I need its recorded bioavailability. 32.7%

* * *

target desc: ATP-dependent Clp protease proteolytic subunit, mitochondrial (Homo sapiens, UniProt Q16740)
procedure summary: Agonist activity at human Casein lysing protease P (HsClpP) assessed as increase in peptidase activity using fluorescent peptide AC-WLA-AMC as substrate measured after 2 hrs by […]
molecules and their reported EC50
Give the number; nM is assumed, so skip it.

O=c1nc(NCc2ccc(F)c(F)c2)[nH]c2c1CN(Cc1ccccc1)CC2 = 1410
O=c1nc(NCc2ccc(F)cc2)[nH]c2c1CN(Cc1ccccc1)CC2 = 1000
O=c1nc(NCc2ccc(Br)cc2)[nH]c2c1CN(Cc1ccccc1)CC2 = 1950

I have this molecule here, O=c1nc(NCc2ccc(C(F)(F)F)cc2)[nH]c2c1CN(Cc1ccccc1)CC2 , and I need its recorded EC50. 2100

Here is the next molecule: O=c1nc(NCc2ccccc2)[nH]c2c1CN(Cc1ccccc1Cl)CC2 1350

Here is the next molecule: N#Cc1cccc(CN2CCc3[nH]c(NCc4ccc(Cl)c(Cl)c4)nc(=O)c3C2)c1 820

Here is the next molecule: N#Cc1cccc(CN2CCc3[nH]c(NCc4ccc(F)c(F)c4)nc(=O)c3C2)c1 870

Here is the next molecule: O=c1nc(NCc2ccccc2)[nH]c2c1CN(Cc1ccccc1)CC2 1340

Here is the next molecule: O=c1nc(NCc2ccc(Cl)c(Cl)c2)[nH]c2c1CN(Cc1ccccc1)CC2 610

Here is the next molecule: O=c1nc(NCc2ccccc2)[nH]c2c1CN(Cc1ccc(F)c(F)c1)CC2 2100

Here is the next molecule: O=c1nc(NCc2ccccc2)[nH]c2c1CN(Cc1cccc(F)c1)CC2 2020

Here is the next molecule: O=c1nc(NCc2ccc3c(c2)OCO3)[nH]c2c1CN(Cc1ccccc1)CC2 520

Here is the next molecule: COc1ccc(CNc2nc(=O)c3c([nH]2)CCN(Cc2ccccc2)C3)cc1 2020

Here is the next molecule: O=c1nc(NCc2ccccc2)[nH]c2c1CN(Cc1cccc(Cl)c1)CC2 1090

Here is the next molecule: Cc1cccc(CN2CCc3[nH]c(NCc4ccccc4)nc(=O)c3C2)c1 2250

Here is the next molecule: Cc1ccc(CNc2nc(=O)c3c([nH]2)CCN(Cc2ccccc2)C3)cc1 1110

* * *

Tested on: HL-60
procedure summary: Anti-leukemia activity against human HL-60 cells assessed as decrease in cell proliferation incubated for 72 hrs by CCK-8 assay
Type: functional, cell-based
assay conditions: HL-60, 72 h
experimental endpoint: IC50 (nM)
Give the number; nM is assumed, so skip it.

I'm curious: which IC50 was measured for N#Cc1cccc(CN2CCc3[nH]c(NCc4ccc(F)cc4)nc(=O)c3C2)c1 tested on HL-60? 40.5

* * *

procedure summary: MRT (0 to 12hrs) in Sprague-Dawley rat at 15 mg/kg, po measured upto 12 hrs by LC-MS analysis
Type: ADME, organism-based
assay conditions: in vivo
experimental endpoint: MRT last at 12 h (h)
Give the number; h is assumed, so skip it.

Cc1ccccc1CN1C(=O)C2=C(CCN(Cc3ccccc3)C2)N2CCN=C12.Cl = 1.3

// switching to the query compound
I have this compound here, Cl.N#Cc1cccc(CN2CCc3[nH]c(NCc4ccc(F)cc4)nc(=O)c3C2)c1 , and I need its recorded MRT last at 12 h. 2.4

* * *

procedure summary: AUC(0 to 12hrs) in Sprague-Dawley rat at 15 mg/kg, po measured upto 12 hrs by LC-MS analysis
Assay type: ADME, organism-based
assay conditions: in vivo
experimental endpoint: AUC(0-t) at 12 h (ng·h/mL)
Give the number; ng·h/mL is assumed, so skip it.

Cl.N#Cc1cccc(CN2CCc3[nH]c(NCc4ccc(F)cc4)nc(=O)c3C2)c1 = 780

// switching to the query compound
I have this compound here, Cc1ccccc1CN1C(=O)C2=C(CCN(Cc3ccccc3)C2)N2CCN=C12.Cl , and I need its recorded AUC(0-t) at 12 h. 565

* * *

compounds and their reported MRT last at 12 h
procedure summary: MRT (0 to 12hrs) in Sprague-Dawley rat at 5 mg/kg, iv measured upto 12 hrs by LC-MS analysis
Format: ADME, organism-based
assay conditions: in vivo
Give the number; h is assumed, so skip it.

Cc1ccccc1CN1C(=O)C2=C(CCN(Cc3ccccc3)C2)N2CCN=C12.Cl = 0.7

I have this compound here, Cl.N#Cc1cccc(CN2CCc3[nH]c(NCc4ccc(F)cc4)nc(=O)c3C2)c1 , and I need its recorded MRT last at 12 h. 2.8

* * *

target desc: ATP-dependent Clp protease proteolytic subunit, mitochondrial (Homo sapiens)
procedure summary: Agonist activity at human Casein lysing protease P (HsClpP) assessed as proteolytic activity by measuring alpha-casein hydrolysis measured after 2 hrs incubation by fluorescence assay
experimental endpoint: EC50 (nM)
Give the number; nM is assumed, so skip it.

I have this compound here, N#Cc1cccc(CN2CCc3[nH]c(NCc4ccc(F)cc4)nc(=O)c3C2)c1 , and I need its recorded EC50. 970

* * *

molecules and their reported AUC(0-t) at 12 h
procedure summary: AUC(0 to 12hrs) in Sprague-Dawley rat at 5 mg/kg, iv measured upto 12 hrs by LC-MS analysis
Assay type: ADME, organism-based
assay conditions: in vivo
Give the number; ng·h/mL is assumed, so skip it.

Cl.N#Cc1cccc(CN2CCc3[nH]c(NCc4ccc(F)cc4)nc(=O)c3C2)c1 = 791

I have this molecule here, Cc1ccccc1CN1C(=O)C2=C(CCN(Cc3ccccc3)C2)N2CCN=C12.Cl , and I need its recorded AUC(0-t) at 12 h. 1270
